*1 amine or outer side, *2 acyl side, *3 side chain or, on linkers, in order; H or OH if unused. Where a SMILES comes first, the peptide text is derived from it. Bridges are numbered along the chain shown (N, C = ends). [ ]: non-standard residue; d: D form. The star is where a group is joined. ξ: configuration not given here. ξOrn(4R-OH,5R-OH) = O=C(C(C[C@@H](O)[C@@H](O)N[*:3])N[*:1])[*:2]; hTyr(3S-OH,4S-OH) = N[C@H](C(=O)O)[C@H](O)[C@@H](O)c1ccc(O)cc1; Orn(3R-OH) = NCC[C@@H](O)[C@H](N)C(=O)O; X2 = O=C(C1CN([*:1])C[C@@H]1O)[*:2]; ξPro(4R-OH) = O=C(O)C1C[C@@H](O)CN1; X1 = CCC(C)CC(C)CCCCCCCCC(=O)*
Below are pIC50 values measured for 1,3-beta-glucan synthase (Candida glabrata, UniProt F5BCZ9).
The read-out pIC50 is expressed as -log10 of concentration in moles per litre.

Look over these answered cases.
CCC(C)CC(C)CCCCCCCCC(=O)NC1C[C@@H](O)[C@@H](O)NC(=O)C2CN(C[C@@H]2O)C(=O)[C@H]([C@H](O)CCN)NC(=O)[C@H]([C@H](O)[C@@H](O)c2ccc(O)cc2)NC(=O)C2C[C@@H](O)CN2C(=O)[C@H]([C@@H](C)O)NC1=O (stereo partly drawn) (X1-[ξOrn(4R-OH,5R-OH)]T[ξPro(4R-OH)][hTyr(3S-OH,4S-OH)][Orn(3R-OH)][X2]; lactam 1-C)
8.00
CCC(C)CC(C)CCCCCCCCC(=O)NC1C[C@@H](O)[C@@H](O)NC(=O)C2CN(C[C@@H]2O)C(=O)[C@H]([C@H](O)CCNC(=O)[C@@H](N)CCN)NC(=O)[C@H]([C@H](O)[C@@H](O)c2ccc(O)cc2)NC(=O)C2C[C@@H](O)CN2C(=O)[C@H]([C@@H](C)O)NC1=O (stereo partly drawn)
7.22

Please find the next compound below.
# lookup: pIC50 of CCC(C)CC(C)CCCCCCCCC(=O)NC1C[C@@H](O)[C@@H](O)NC(=O)C2CN(C[C@@H]2O)C(=O)[C@H]([C@H](O)CCNC(=O)CN)NC(=O)[C@H]([C@H](O)[C@@H](O)c2ccc(O)cc2)NC(=O)C2C[C@@H](O)CN2C(=O)[C@H]([C@@H](C)O)NC1=O (stereo partly drawn)
7.82

###

# Species: Mus musculus
# measurementDescription: Percentage of mice with complete eradication of candida in kidneys
# Type: functional, Kidney
valueKind: Sterilized (%)
Field format: number, assumed %, no unit text.

Consider the molecule CCC(C)CC(C)CCCCCCCCC(=O)NC1C[C@@H](O)[C@@H](OCCN)NC(=O)C2CN(C[C@@H]2O)C(=O)[C@H]([C@H](O)CCNC(=O)[C@@H](N)CCCN)NC(=O)[C@H]([C@H](O)[C@@H](O)c2ccc(O)cc2)NC(=O)C2C[C@@H](O)CN2C(=O)[C@H]([C@@H](C)O)NC1=O (some centres undefined) and give its measured Sterilized.
70

Request the reported Sterilized associated with CCC(C)CC(C)CCCCCCCCC(=O)NC1C[C@@H](O)[C@@H](OCCN)NC(=O)C2CN(C[C@@H]2O)C(=O)[C@H]([C@H](O)CCN)NC(=O)[C@H]([C@H](O)[C@@H](O)c2ccc(O)cc2)NC(=O)C2C[C@@H](O)CN2C(=O)[C@H]([C@@H](C)O)NC1=O (some centres undefined)
80

Quick one: Sterilized for CCC(C)CC(C)CCCCCCCCC(=O)NC1C[C@@H](O)[C@@H](O)NC(=O)C2CN(C[C@@H]2O)C(=O)[C@H]([C@H](O)CCNC(=O)[C@@H](N)CCN)NC(=O)[C@H]([C@H](O)[C@@H](O)c2ccc(O)cc2)NC(=O)C2C[C@@H](O)CN2C(=O)[C@H]([C@@H](C)O)NC1=O (some centres undefined) ?
60

Sterilized lookup needed for CCC(C)CC(C)CCCCCCCCC(=O)NC1C[C@@H](O)[C@@H](OCCN)NC(=O)C2CN(C[C@@H]2O)C(=O)[C@H]([C@H](O)CCNC(=O)[C@@H](N)CCN)NC(=O)[C@H]([C@H](O)[C@@H](O)c2ccc(O)cc2)NC(=O)C2C[C@@H](O)CN2C(=O)[C@H]([C@@H](C)O)NC1=O (some centres undefined) , thanks.
0

###

# Species: Mus musculus
# measurementDescription: Percentage of mice with complete eradication of candida in kidneys
# Assay type: functional, Kidney
A collection of molecules and their measured Sterilized
Express it in %; write the number only.

Answered examples (3):
CCC(C)CC(C)CCCCCCCCC(=O)NC1C[C@@H](O)[C@@H](O)NC(=O)C2CN(C[C@@H]2O)C(=O)[C@H]([C@H](O)CCNC(C)=O)NC(=O)[C@H]([C@H](O)[C@@H](O)c2ccc(O)cc2)NC(=O)C2C[C@@H](O)CN2C(=O)[C@H]([C@@H](C)O)NC1=O (some centres undefined)
0
CCC(C)CC(C)CCCCCCCCC(=O)NC1C[C@@H](O)[C@@H](OCCN)NC(=O)C2CN(C[C@@H]2O)C(=O)[C@H]([C@H](O)CCNC(=O)[C@@H](N)CN)NC(=O)[C@H]([C@H](O)[C@@H](O)c2ccc(O)cc2)NC(=O)C2C[C@@H](O)CN2C(=O)[C@H]([C@@H](C)O)NC1=O (some centres undefined)
100
CCC(C)CC(C)CCCCCCCCC(=O)NC1C[C@@H](O)[C@@H](O)NC(=O)C2CN(C[C@@H]2O)C(=O)[C@H]([C@H](O)CCNC(=O)CCCCCN)NC(=O)[C@H]([C@H](O)[C@@H](O)c2ccc(O)cc2)NC(=O)C2C[C@@H](O)CN2C(=O)[C@H]([C@@H](C)O)NC1=O (some centres undefined)
0

What value of Sterilized has been recorded for this entry: CCC(C)CC(C)CCCCCCCCC(=O)NC1C[C@@H](O)[C@@H](O)NC(=O)C2CN(C[C@@H]2O)C(=O)[C@H]([C@H](O)CCNC(=O)CCCCN)NC(=O)[C@H]([C@H](O)[C@@H](O)c2ccc(O)cc2)NC(=O)C2C[C@@H](O)CN2C(=O)[C@H]([C@@H](C)O)NC1=O (some centres undefined)
0

###

# measurementDescription: Acute toxicity in mice after intravenous administration
# cond: mouse, in vivo
valueKind: Dose

Reference set (2 entries):
CCC(C)CC(C)CCCCCCCCC(=O)NC1C[C@@H](O)[C@@H](O)NC(=O)C2CN(C[C@@H]2O)C(=O)[C@H]([C@H](O)CCNC(=O)CCN)NC(=O)[C@H]([C@H](O)[C@@H](O)c2ccc(O)cc2)NC(=O)C2C[C@@H](O)CN2C(=O)[C@H]([C@@H](C)O)NC1=O (stereo partly drawn)
250 mg/kg
CCC(C)CC(C)CCCCCCCCC(=O)NC1C[C@@H](O)[C@@H](OCCN)NC(=O)C2CN(C[C@@H]2O)C(=O)[C@H]([C@H](O)CCNC(=O)[C@@H](N)CN)NC(=O)[C@H]([C@H](O)[C@@H](O)c2ccc(O)cc2)NC(=O)C2C[C@@H](O)CN2C(=O)[C@H]([C@@H](C)O)NC1=O (stereo partly drawn)
> 100 mg/kg

# get_value(readout='Dose', item= CCC(C)CC(C)CCCCCCCCC(=O)NC1C[C@@H](O)[C@@H](OCCN)NC(=O)C2CN(C[C@@H]2O)C(=O)[C@H]([C@H](O)CCNC(=O)[C@@H](N)CCCN)NC(=O)[C@H]([C@H](O)[C@@H](O)c2ccc(O)cc2)NC(=O)C2C[C@@H](O)CN2C(=O)[C@H]([C@@H](C)O)NC1=O (stereo partly drawn) )
80 mg/kg

###

# Species: Mus musculus
# measurementDescription: Percentage of mice with complete eradication of candida in kidneys
# Assay type: functional, Kidney
Measured Sterilized, listed per entry.
Kindly provide the numeric value in % only, without the unit symbol.

Illustrative cases are given below, each with its answer.
CCC(C)CC(C)CCCCCCCCC(=O)NC1C[C@@H](O)[C@@H](O)NC(=O)C2CN(C[C@@H]2O)C(=O)[C@H]([C@H](O)CCNC(=O)CCCN)NC(=O)[C@H]([C@H](O)[C@@H](O)c2ccc(O)cc2)NC(=O)C2C[C@@H](O)CN2C(=O)[C@H]([C@@H](C)O)NC1=O (some centres undefined)
40
CCC(C)CC(C)CCCCCCCCC(=O)NC1C[C@@H](O)[C@@H](O)NC(=O)C2CN(C[C@@H]2O)C(=O)[C@H]([C@H](O)CCNC(=O)CN)NC(=O)[C@H]([C@H](O)[C@@H](O)c2ccc(O)cc2)NC(=O)C2C[C@@H](O)CN2C(=O)[C@H]([C@@H](C)O)NC1=O (some centres undefined)
20
CCC(C)CC(C)CCCCCCCCC(=O)NC1C[C@@H](O)[C@@H](O)NC(=O)C2CN(C[C@@H]2O)C(=O)[C@H]([C@H](O)CCNC(=O)CCCCCCN)NC(=O)[C@H]([C@H](O)[C@@H](O)c2ccc(O)cc2)NC(=O)C2C[C@@H](O)CN2C(=O)[C@H]([C@@H](C)O)NC1=O (some centres undefined)
0

Next:
// returns reported Sterilized for input CCC(C)CC(C)CCCCCCCCC(=O)NC1C[C@@H](O)[C@@H](O)NC(=O)C2CN(C[C@@H]2O)C(=O)[C@H]([C@H](O)CCNC(=O)[C@@H](N)CCCN)NC(=O)[C@H]([C@H](O)[C@@H](O)c2ccc(O)cc2)NC(=O)C2C[C@@H](O)CN2C(=O)[C@H]([C@@H](C)O)NC1=O (some centres undefined)
20

From: ChEMBL document CHEMBL1130502
